# System: HepG2 cell line
# PROTOCOL SUMMARY: In vitro toxicity study on HepG2 cell line (resazurin, viability and IC50)
# Type: cell-based, human
# CONDITION NOTES: HepG2 cells, 800 μM lipid, 48 h post-treatment, resazurin, relative to ethanol vehicle controls
ENDPOINT LABEL: Viability (%) at different lipid concentrations, mean
Respond with the bare value in %.

Prompt: What measured Viability (%) at different lipid concentrations, mean goes with CCCCC/C=C\C/C=C\CCCCCCCCOC(CCCCCCCCCCCCCCC)O[Si](C)(C)OCCCCCCN(CCO)CCO (stereo not shown) ?
Completion: 89.8

Prompt: What measured Viability (%) at different lipid concentrations, mean goes with CCCCCCCC/C=C\CCCCCCCCOC(=O)C(C)(C)CC(OCCCCCCCC/C=C\CCCCCCCC)O[Si](C)(C)OCCCCCCN1CCOCC1 (stereo not shown) ?
Completion: 80.1

Prompt: What measured Viability (%) at different lipid concentrations, mean goes with CCCCC/C=C\C/C=C\CCCCCCCCOC(CCCCCCC/C=C\C/C=C\CCCCC)O[Si](C)(C)OCCCCCCN1CCOCC1 (stereo not shown) ?
Completion: 1.9

Prompt: What measured Viability (%) at different lipid concentrations, mean goes with C#CCN(C)CCCCCCO[Si](C)(C)OC(CCCCCCC/C=C\C/C=C\CCCCC)OCCCCCCCC/C=C\C/C=C\CCCCC (stereo not shown) ?
Completion: 1.7

Prompt: What measured Viability (%) at different lipid concentrations, mean goes with CCCCCCCC/C=C\CCCCCCCCOC(=O)C(C)(C)CCC(OCCCCCCCC/C=C\CCCCCCCC)O[Si](C)(C)OCCCCCCN(CCO)CCO (stereo not shown) ?
Completion: 103.1

Prompt: What measured Viability (%) at different lipid concentrations, mean goes with CCCCCCCC/C=C\CCCCCCCCOC(=O)C(C)(C)CC(OCCCCCCCC/C=C\CCCCCCCC)O[Si](C)(C)OCCCCCCN(CCCO)CCCO (stereo not shown) ?
Completion: 21.0

Prompt: What measured Viability (%) at different lipid concentrations, mean goes with CCCCCCCC/C=C\CCCCCCCC(OCCCCCCCCCCCC1CCCCC1)O[Si](C)(C)OCCCCCCN(CCO)CCO (stereo not shown) ?
Completion: 93.8
